target: PDK1 (Homo sapiens (Human)); assay: PDK1 kinase assay (coupled PDK1/AKT/FAM-crosstide assay, IMAP fluorescence polarization); assay type: biochemical; details: inhibition of phospo-PDK1 in vitro
Value kind: IC50

[in] Fill in: IC50 on PDK1 (Homo sapiens (Human)), entry `COc1cc2ncnc(-c3ccc(CNc4ncccc4C(=O)N[C@@H](C)c4ccc(F)cc4)s3)c2cc1OC`
[out] > 5 µM

----------
target: PDK1 (Homo sapiens (Human), UniProt O15530); experiment: PDK1 kinase assay (coupled PDK1/AKT/FAM-crosstide assay, IMAP fluorescence polarization); assay type: biochemical; conditions: inhibition of phospo-PDK1 in vitro
Sequence (O15530 51-359): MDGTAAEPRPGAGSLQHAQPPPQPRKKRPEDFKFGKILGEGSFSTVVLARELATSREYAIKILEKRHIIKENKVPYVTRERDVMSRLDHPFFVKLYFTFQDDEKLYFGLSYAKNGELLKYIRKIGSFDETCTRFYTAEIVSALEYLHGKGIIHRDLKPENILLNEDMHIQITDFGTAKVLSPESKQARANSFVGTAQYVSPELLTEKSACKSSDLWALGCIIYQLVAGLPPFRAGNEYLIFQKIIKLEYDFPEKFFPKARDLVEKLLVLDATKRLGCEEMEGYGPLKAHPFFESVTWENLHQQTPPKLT
Structures can show the parent of a compound that is named as a salt.
The entries below are paired with their reported IC50.

Sample records with IC50:
Compound	IC50
C[C@H](NC(=O)c1cccnc1NCc1ccc(-c2ccc3ncnn3c2)s1)c1ccc(F)cc1	1 to 5 µM
Cc1ccc(CNC(=O)c2cccnc2NCc2ccc(-c3ccc4ncnc(N)c4c3)s2)o1 [Example 3.17, (TFA salt)]	0.1 to 1 µM
CC(C)Oc1cc(CNc2ncccc2C(=O)NCc2ccc(F)c(F)c2)cc(-c2ccc3ncnc(NC4CC4)c3c2)c1	< 0.1 µM
Nc1ncnc2ccc(-c3ccc(CNc4ncc(-c5ccccc5)nc4C(=O)NCc4ccc(F)c(F)c4)s3)cc12	> 5 µM
Nc1ncnc2ccc(-c3ccc(CNc4ncccc4C(=O)NCCN4CCCC4)s3)cc12 [Example 3.36, (TFA salt)]	> 5 µM

[in] Fill in: IC50 on PDK1 (Homo sapiens (Human), UniProt O15530), entry `Nc1ncnc2ccc(-c3ccc(CNc4nccnc4C(=O)NCc4ccc(F)c(F)c4)s3)cc12`
[out] < 0.1 µM

[in] Fill in: IC50 on PDK1 (Homo sapiens (Human), UniProt O15530), entry `C[C@H](NC(=O)c1cccnc1NCc1ccc(-c2ccc3ncnc(NC4CNC4)c3c2)s1)c1ccc(F)c(F)c1`
[out] < 0.1 µM

----------
system: phospho-akt (Thr308) in PC-3 cells; experiment: Inhibition of phospho-akt (Thr308) in PC-3 cells, MSD phospho-akt 308 ELISA kit; format: cell-based; conditions: Homo sapiens; inhibition of P308 Akt in PC-3 cells using MSD, 2 hours, no serum; read-out: EC50
pEC50: −log10 of the molar value.
The entries below are paired with their reported pEC50.

Cpd smiles	Target system	pEC50
Nc1n[nH]c2ncc(-c3ccc(CNc4ncc(C(F)(F)F)cc4C(=O)NCC4CC4)cc3)cc12	phospho-akt (Thr308) in PC-3 cells	5.00 to 6.00
C[C@H](NC(=O)c1cc(C#N)cnc1NCc1ccc(-c2cnc(N)c(C(=O)O)c2)cc1)c1ccc(F)cc1	phospho-akt (Thr308) in PC-3 cells	< 5.00
Nc1n[nH]c2ncc(-c3ccc(CNc4ncc(C(F)(F)F)cc4C(=O)Nc4ccccn4)cc3)cc12	phospho-akt (Thr308) in PC-3 cells	5.00 to 6.00
C[C@H](NC(=O)c1nc(C#N)cnc1NCc1ccc(-c2cnc3c(c2)c(N)nn3C)cc1)c1ccc(F)c(F)c1	phospho-akt (Thr308) in PC-3 cells	5.00 to 6.00
C[C@H](NC(=O)c1cc(C#N)cnc1NCc1ccc(-c2cnc(N)c(C(=O)NCCCS(C)(=O)=O)n2)cc1)c1ccc(F)cc1	phospho-akt (Thr308) in PC-3 cells	> 6.00
Nc1cnc(-c2ccc(CNc3nccc4ncn(Cc5ccc(F)c(F)c5)c(=O)c34)cc2)cn1	phospho-akt (Thr308) in PC-3 cells	5.00 to 6.00

Consider now this further compound.
[in] Supply pEC50 value. Item: `N#Cc1cnc(NCc2ccc(-c3cnc(N)cn3)cc2)c(C(=O)NCc2ccc(F)c(F)c2)c1`
[out] 5.00 to 6.00

----------
The entries below are paired with their reported EC50.
system: phospho-akt (Thr308) in PC-3 cells; experiment: Inhibition of phospho-akt (Thr308) in PC-3 cells, MSD phospho-akt 308 ELISA kit; format: cell-based; conditions: Homo sapiens; inhibition of P308 Akt in PC-3 cells using MSD, 2 hours, no serum; read-out: EC50

Compound	EC50
C[C@H](NC(=O)c1cc(C#N)cnc1NCc1ccc(-c2cnc(N)c(C(=O)N(C)C)c2)cc1)c1ccc(F)cc1 [Example 205]	1 to 10 µM
Nc1n[nH]c2ncc(-c3ccc(CNc4ncc(C(F)(F)F)cc4C(=O)NC4COC4)cc3)cc12 [Example 298]	> 10 µM

[in] Fill in: EC50 on phospho-akt (Thr308) in PC-3 cells, entry C[C@H](NC(=O)c1nc(C#N)cnc1NCc1ccc(-c2cnc3[nH]nc(NC(=O)C(C)(C)C)c3c2)cc1)c1ccc(F)c(F)c1 [Example 420]
[out] 1 to 10 µM

[in] Fill in: EC50 on phospho-akt (Thr308) in PC-3 cells, entry N#Cc1ccc(NCc2ccc(-c3ccc4ncnc(N)c4c3)s2)c(C(=O)NCc2ccc(F)c(F)c2)c1 [Example 247]
[out] > 10 µM

[in] Fill in: EC50 on phospho-akt (Thr308) in PC-3 cells, entry C[C@H](NC(=O)c1cc(C#N)cnc1NCc1ccc(-c2cnc(N)c(N3CCC[C@@H](N)C3)n2)cc1)c1ccc(F)cc1 [Example 188]
[out] 1 to 10 µM

[in] Fill in: EC50 on phospho-akt (Thr308) in PC-3 cells, entry CNC(=O)c1cc(S(=O)(=O)NCCN)cnc1NCc1ccc(-c2ccc3ncnc(N)c3c2)s1 [Example 344]
[out] > 10 µM

[in] Fill in: EC50 on phospho-akt (Thr308) in PC-3 cells, entry C[C@H](NC(=O)c1cc(C(F)(F)F)cnc1NCc1ccc(-c2cnc3[nH]nc(N)c3c2)cc1)c1ccc(Cl)cc1 [Example 277]
[out] < 1 µM

[in] Fill in: EC50 on phospho-akt (Thr308) in PC-3 cells, entry N#Cc1cnc(NCc2ccc(-c3cnc4[nH]nc(N)c4c3)cc2)c(C(=O)Nc2ccc(Cl)cc2)n1 [Example 426]
[out] < 1 µM

----------
molecular target: PDK1 (Homo sapiens (Human), UniProt O15530); test: PDK1 kinase assay (coupled PDK1/AKT/FAM-crosstide assay, IMAP fluorescence polarization); assay type: biochemical; conditions: inhibition of PDK1 in vitro
The entries below are paired with their reported IC50.

Sample records with IC50:
Cpd smiles	IC50
C[C@H](NC(=O)c1nc(C#N)cnc1N[C@H](C)c1ccc(-c2cn(C)c3ncnc(N)c23)cc1)c1ccc(F)c(F)c1	< 100 nM
Nc1n[nH]c2ncc(-c3ccc(CNc4ncc(C(F)(F)F)cc4C(=O)Nc4ccc(F)cn4)cc3)cc12	< 100 nM
Nc1ncnc2[nH]nc(-c3ccc(CNc4ncc(C(F)(F)F)cc4C(=O)NCc4ccc(F)c(F)c4)cc3)c12	< 100 nM

Consider now this further compound.
[in] Fill in: IC50 on PDK1 (Homo sapiens (Human), UniProt O15530), entry `CNc1ncc2cc(O[C@@H](C)CNc3ncc(C#N)nc3C(=O)N[C@@H](C)c3ccc(F)c(F)c3)ccc2n1`
[out] 100 to 1000 nM

----------
biological target: PDK1 (Homo sapiens (Human), UniProt O15530); experiment: PDK1 kinase assay (coupled PDK1/AKT/FAM-crosstide assay, IMAP fluorescence polarization); type: biochemical; conditions: inhibition of PDK1 in vitro
pIC50: −log10 of the molar value.
Value kind: pIC50

Sample records with pIC50:
Compound	pIC50
N#Cc1cnc(NCc2ccc(-c3ccc(N)nc3)cc2)c(C(=O)NCc2ccc(F)c(F)c2)c1	> 7.00
C[C@H](NC(=O)c1nc(C#N)cnc1NCc1ccc(-c2cn(CCN(C)C)c3ncnc(N)c23)cc1)c1ccc(F)c(F)c1	> 7.00
C[C@H](NC(=O)c1cc(C#N)cnc1NCc1ccc(-c2ccc(N)nc2)cc1)c1ccc(F)c(F)c1	> 7.00

[in] Fill in: pIC50 on PDK1 (Homo sapiens (Human), UniProt O15530), entry `C[C@H](NC(=O)c1nc(C#N)cnc1NCc1ccc(-c2cnc(N)c(O[C@@H]3CCC[C@H]3N)n2)cc1)c1ccc(F)c(F)c1`
[out] > 7.00

[in] Fill in: pIC50 on PDK1 (Homo sapiens (Human), UniProt O15530), entry `Nc1cnc(-c2ccc(CNc3ncc(C(F)(F)F)cc3C(=O)NCc3ccc(F)c(F)c3)cn2)cn1`
[out] 6.00 to 7.00

[in] Fill in: pIC50 on PDK1 (Homo sapiens (Human), UniProt O15530), entry `C[C@H](NC(=O)c1nc(C#N)cnc1NCc1ccc(-c2cnc3c(c2)c(N)nn3C)cc1)c1ccc(F)c(F)c1`
[out] 5.30 to 6.00

[in] Fill in: pIC50 on PDK1 (Homo sapiens (Human), UniProt O15530), entry `Nc1n[nH]c2ncc(-c3ccc(CNc4ncc(C(F)(F)F)cc4C(=O)N[C@@H](CO)c4ccc(F)cc4)cc3)cc12`
[out] > 7.00

[in] Fill in: pIC50 on PDK1 (Homo sapiens (Human), UniProt O15530), entry `CNC(=O)c1cc(S(=O)(=O)NCCO)cnc1NCc1ccc(-c2ccc3ncnc(N)c3c2)s1`
[out] < 5.30

[in] Fill in: pIC50 on PDK1 (Homo sapiens (Human), UniProt O15530), entry `O=C(NCc1ccc(F)c(F)c1)c1cccnc1NCc1cc(-c2c[nH]c3ncc(-c4ccn[nH]4)cc23)ccn1`
[out] > 7.00

[in] Fill in: pIC50 on PDK1 (Homo sapiens (Human), UniProt O15530), entry `Nc1n[nH]c2ncc(-c3ccc(CNc4ncc(C(F)(F)F)cc4C(=O)Nc4ccc(C(F)(F)F)nc4)cc3)cc12`
[out] > 7.00

[in] Fill in: pIC50 on PDK1 (Homo sapiens (Human), UniProt O15530), entry `Nc1n[nH]c2ncc(-c3ccc(CNc4ncc(C(F)(F)F)cc4C(=O)Nc4cccc(F)c4)cc3)cc12`
[out] > 7.00

[in] Fill in: pIC50 on PDK1 (Homo sapiens (Human), UniProt O15530), entry `CN(C(=O)c1cc(C(F)(F)F)cnc1NCc1ccc(-c2cnc3[nH]nc(N)c3c2)cc1)c1ccc(F)cc1`
[out] < 5.30

[in] Fill in: pIC50 on PDK1 (Homo sapiens (Human), UniProt O15530), entry `C[C@H](NC(=O)c1cc(C#N)cnc1NCc1ccc(-c2cnc(N)c(OC(F)F)c2)cc1)c1ccc(F)cc1`
[out] > 7.00
